Test system: binding site 2 of the sodium channel
assay-text: Binding investigations at sodium channel binding site 2 (BTX binding)
measurement-parameters: 10 μM; rat cerebrocortex synaptosomes; [3H]-Batrachotoxinin A20 α-benzoate 10 nM; 37° C., 120 min
Each record's BTX binding at 10 μM [%] inhibition is compared with low end = under 60%, middle = from 60% up to 70%, high end = 70% and over to give its class.

The examples below pair each entry with its known result.
1. CN1CCN(CC2CCCCCCC2(O)CCc2ccccc2)CC1 (stereo not drawn) : high end
2. CCC(O)(Cc1ccccc1)C(C)CN1CCN(C)CC1 (stereo not drawn) : low end

QUERY: Returns: class label. Input: CN1CCN(CC2CCCCC2(O)c2ccc(Cl)cc2Cl)CC1 (stereo not drawn)
RESULT: low end

QUERY: Which band does CN1CCN(CC2CCCCCCC2(O)C2CCCC2)CC1 (stereo not drawn) fall in?
RESULT: low end

QUERY: Band for the recorded BTX binding at 10 μM [%] inhibition of CN1CCN(CC2CCCCC2(O)CCCc2ccccc2)CC1 (stereo not drawn) ?
RESULT: high end

QUERY: State the class of the compound shown: C=CC(O)(CC)C(C)CN1CCN(C)CC1 (stereo not drawn)
RESULT: middle

QUERY: Dear colleague, I would appreciate it if you could identify the bin for CN1CCN(CC2CCCCCCC2(O)c2cccs2)CC1 (stereo not drawn) and reply at your convenience.
RESULT: middle

QUERY: Pick a category. Item: CN1CCN(CC2CCCCCC2(O)Cc2ccccc2)CC1 (stereo not drawn)
RESULT: high end

QUERY: Bin this entry: CN1CCN(CC2CCCCCCC2(O)CCCc2ccccc2)CC1 (stereo not drawn)
RESULT: high end

---

study-target: NA transporter (Rattus norvegicus, UniProt Q63380)
Construct: synaptosomes were freshly isolated from rat brain regions; from tissue; host or cells: rat hypothalamus synaptosomes (P2 fraction)
Sequence (Q63380 1-617): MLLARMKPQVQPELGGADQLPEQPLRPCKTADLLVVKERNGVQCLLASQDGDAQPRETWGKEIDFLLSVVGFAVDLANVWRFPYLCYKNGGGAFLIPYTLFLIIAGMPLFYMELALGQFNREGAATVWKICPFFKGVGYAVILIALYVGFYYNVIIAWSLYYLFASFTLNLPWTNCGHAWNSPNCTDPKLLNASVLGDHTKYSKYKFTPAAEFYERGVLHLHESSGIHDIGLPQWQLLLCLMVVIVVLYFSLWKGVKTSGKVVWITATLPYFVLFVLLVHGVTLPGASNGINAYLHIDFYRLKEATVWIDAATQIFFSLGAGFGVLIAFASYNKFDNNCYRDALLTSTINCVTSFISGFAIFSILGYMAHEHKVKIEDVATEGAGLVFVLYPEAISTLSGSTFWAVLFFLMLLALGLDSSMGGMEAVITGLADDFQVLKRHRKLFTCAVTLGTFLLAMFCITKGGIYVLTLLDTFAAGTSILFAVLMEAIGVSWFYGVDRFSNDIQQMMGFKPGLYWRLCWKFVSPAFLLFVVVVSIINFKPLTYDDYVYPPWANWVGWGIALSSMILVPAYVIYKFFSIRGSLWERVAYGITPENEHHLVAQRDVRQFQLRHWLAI
assay-text: Noradrenaline reuptake inhibition (NA uptake inhibition) in synaptosomes
Format: biochemical
measurement-parameters: synaptosomes from hypothalamus of male rat brains
I would appreciate it if you labelled entries 1 when inhibition at 10 µM is 50% or higher, otherwise 0.

1) Cc1ccc(C2(O)CCCCC2CN2CCN(C)CC2)cc1 (centres unmarked) : 1
2) CCC(O)(c1ccc(F)c(C)c1)C(C)CN1CCN(c2cccc(Cl)c2)CC1 (centres unmarked) : 0
3) CCC(O)(c1cccc(C(F)(F)F)c1)C(C)CN1CCN(c2cccc(Cl)c2)CC1 (centres unmarked) : 1
4) CCC(O)(c1ccc(OC)cc1)C(C)CN1CCN(c2cccc(Cl)c2)CC1 (centres unmarked) : 0
5) CN1CCN(CC2CCCCCCC2(O)CCc2ccccc2)CC1 (centres unmarked) : 1

QUERY: Can CCC(O)(c1cccc(F)c1)C(C)CN1CCN(c2cccc(Cl)c2)CC1 (centres unmarked) be said to have inhibition at 10 µM at or above 50%?
RESULT: 1

QUERY: Is inhibition at 10 µM for CCC(O)(Cc1ccc(Cl)cc1)C(C)CN1CCN(c2cccc(Cl)c2)CC1 (centres unmarked) at or above 50%?
RESULT: 0

---

study-target: NA transporter (Rattus norvegicus, UniProt Q63380)
Construct: synaptosomes were freshly isolated from rat brain regions; from tissue; host or cells: rat hypothalamus synaptosomes (P2 fraction)
assay-text: Noradrenaline reuptake inhibition (NA uptake inhibition) in synaptosomes
Format: biochemical
measurement-parameters: synaptosomes from hypothalamus of male rat brains
Below, each of the compounds is paired with its reported inhibition at 10 µM value.
Expressed in %, but write only the number.

Below, 2 compounds whose answers are already recorded.
1. CCC(O)(c1ccc(F)cc1)C(C)CN1CCN(c2cccc(Cl)c2)CC1 (centres unmarked) : 53
2. CCC(O)(CCc1ccccc1)C(C)CN1CCN(c2cccc(Cl)c2)CC1 (centres unmarked) : 52

Here is another compound to look at.
Entry CCC(O)(c1ccc(C(C)(C)C)cc1)C(C)CN1CCN(c2cccc(Cl)c2)CC1 (centres unmarked) ; inhibition at 10 µM = 62

---

Measured BTX binding at 10 μM [%] inhibition by item
System: binding site 2 of the sodium channel
assay-text: Binding investigations at sodium channel binding site 2 (BTX binding)
measurement-parameters: 10 μM; rat cerebrocortex synaptosomes; [3H]-Batrachotoxinin A20 α-benzoate 10 nM; 37° C., 120 min
Param answer (str): number followed by unit.

Some solved entries appear below for comparison.
1) Cc1cc(C2(O)CCCCC2CN2CCN(C)CC2)ccc1F (stereo not drawn) : 60%
2) CN1CCN(CC2CCCCC2(O)C2CCCC2)CC1 (stereo not drawn) : 49%
3) CN1CCN(CC2CCCCC2(O)CCc2ccccc2)CC1 (stereo not drawn) : 65%
4) CCC(O)(c1ccccc1C)C(C)CN1CCN(C)CC1 (stereo not drawn) : 43%
5) Cc1ccccc1C1(O)CCCCC1CN1CCN(C)CC1 (stereo not drawn) : 50%
6) CCC(O)(c1ccc(F)c(C)c1)C(C)CN1CCN(C)CC1 (stereo not drawn) : 56%

The molecule CCC(O)(c1ccc(C)cc1)C(C)CN1CCN(C)CC1 (stereo not drawn) on binding site 2 of the sodium channel: BTX binding at 10 μM [%] inhibition was 48%

For the molecule CN1CCN(CC2CCCCCC2(O)c2ccc(C(C)(C)C)cc2)CC1 (stereo not drawn) , the measured BTX binding at 10 μM [%] inhibition on binding site 2 of the sodium channel was 80%

Sample CCC(O)(CCCc1ccccc1)C(C)CN1CCN(C)CC1 (stereo not drawn) , system: binding site 2 of the sodium channel. Its BTX binding at 10 μM [%] inhibition is 74%

Short answer on binding site 2 of the sodium channel for CCC(O)(C(C)CN1CCN(C)CC1)C1CCCCC1 (stereo not drawn) , BTX binding at 10 μM [%] inhibition: 59%

Here Cc1cc(C2(O)CCCCCC2CN2CCN(C)CC2)ccc1F (stereo not drawn) was tested on binding site 2 of the sodium channel, and its BTX binding at 10 μM [%] inhibition came to 69%

Value sought: BTX binding at 10 μM [%] inhibition, system binding site 2 of the sodium channel, item CCC(O)(CCc1ccccc1)C(C)CN1CCN(C)CC1 (stereo not drawn) . Result: 74%

Let me check: Cc1cccc(C2(O)CCCCC2CN2CCN(C)CC2)c1 (stereo not drawn) , system binding site 2 of the sodium channel, measured BTX binding at 10 μM [%] inhibition is 58%

Sample COc1ccc(C2(O)CCCCCCC2CN2CCN(C)CC2)cc1 (stereo not drawn) , system: binding site 2 of the sodium channel. Its BTX binding at 10 μM [%] inhibition is 42%

Response field BTX binding at 10 μM [%] inhibition (binding site 2 of the sodium channel) for item CN1CCN(CC2CCCCCCC2(O)c2ccc(C(C)(C)C)cc2)CC1 (stereo not drawn) : 64%

---

study-target: NA transporter (Rattus norvegicus, UniProt Q63380)
Construct: synaptosomes were freshly isolated from rat brain regions; from tissue; host or cells: rat hypothalamus synaptosomes (P2 fraction)
assay-text: Noradrenaline reuptake inhibition (NA uptake inhibition) in synaptosomes
Assay type: biochemical
measurement-parameters: synaptosomes from hypothalamus of male rat brains
Just so you know, the groups by inhibition at 10 µM go like this: lo = under 50%, med = from 50% up to 60%, hi = 60% and over

Check out these entries, answers already filled in.
1) CCC(O)(C#Cc1ccccc1)C(C)CN1CCN(c2cccc(Cl)c2)CC1 (centres unmarked) : lo
2) CCC(O)(Cc1ccccc1)C(C)CN1CCN(c2cccc(Cl)c2)CC1 (centres unmarked) : med
3) CN1CCN(CC2CCCCC2(O)CCc2ccccc2)CC1 (centres unmarked) : hi
4) CCC(O)(c1cccc(Cl)c1)C(C)CN1CCN(c2cccc(Cl)c2)CC1 (centres unmarked) : med
5) CCC(O)(c1cccc(C)c1)C(C)CN1CCN(c2cccc(Cl)c2)CC1 (centres unmarked) : lo

QUERY: Given CCC(O)(c1cccs1)C(C)CN1CCN(c2cccc(Cl)c2)CC1 (centres unmarked) , name the class its inhibition at 10 µM places it in.
RESULT: lo

QUERY: Please indicate the class for CCC(O)(CCCc1ccccc1)C(C)CN1CCN(c2cccc(Cl)c2)CC1 (centres unmarked) based on its inhibition at 10 µM.
RESULT: med

QUERY: Record Cc1cc(C2(O)CCCCC2CN2CCN(C)CC2)ccc1F (centres unmarked) — which class?
RESULT: hi

QUERY: Classify this compound: CCC(O)(C(C)CN1CCN(c2cccc(Cl)c2)CC1)C1CCCCC1 (centres unmarked)
RESULT: hi

QUERY: Kindly identify the class of CCC(O)(Cc1cccc(C)c1)C(C)CN1CCN(c2cccc(Cl)c2)CC1 (centres unmarked) .
RESULT: med

---

System: binding site 2 of the sodium channel
assay-text: Binding investigations at sodium channel binding site 2 (BTX binding)
measurement-parameters: 10 μM; rat cerebrocortex synaptosomes; [3H]-Batrachotoxinin A20 α-benzoate 10 nM; 37° C., 120 min
# key: entry, value: BTX binding at 10 μM [%] inhibition
Give your result in % as a bare value.

1) CCC(O)(c1ccc(Cl)cc1)C(C)CN1CCN(C)CC1 (stereo not drawn) : 59
2) Cc1cccc(C2(O)CCCCCC2CN2CCN(C)CC2)c1 (stereo not drawn) : 44
3) CN1CCN(CC2CCCCCCC2(O)Cc2ccccc2)CC1 (stereo not drawn) : 75

response.value for Cc1ccc(C2(O)CCCCC2CN2CCN(C)CC2)cc1 (stereo not drawn) (field: BTX binding at 10 μM [%] inhibition) = 53

Entry CCC(O)(c1ccccc1)C(C)CN1CCN(C)CC1 (stereo not drawn) , BTX binding at 10 μM [%] inhibition reported as 58

BTX binding at 10 μM [%] inhibition measured on CN1CCN(CC2CCCCCC2(O)c2ccccc2)CC1 (stereo not drawn) = 63

The compound listed as CN1CCN(CC2CCCCCC2(O)c2ccc(Cl)cc2)CC1 (stereo not drawn) shows BTX binding at 10 μM [%] inhibition equal to 69

# BTX binding at 10 μM [%] inhibition of CN1CCN(CC2CCCCC2(O)C2CCCCC2)CC1 (stereo not drawn) = 63

The reported measurements were obtained from patent US7390812B2.
